biological target: UniProtKB P00736; test: Evaluated in vitro for inhibitory activity against purified human C1r protease incubated in buffer for 60 minutes
measurement_kind: IC50 (µM)

[[record]]
compound = "CCN(c1nc2ccccc2c(=O)o1)S(=O)(=O)c1ccc(Cl)cc1"
units_text = "µM"
meas_value = 62


P. CCN(c1nc2ccccc2c(=O)o1)S(=O)(=O)c1ccccc1
Q. CN(c1nc2ccccc2c(=O)o1)S(=O)(=O)c1cccc(Cl)c1
Asked: Could you please tell me which of these two has the higher IC50: P or Q ? I would appreciate it if you answered with the label of your choice.
Given back: Q
(Q: 58 µM, P: 8.3 µM)

###

molecular target: Complement C1r subcomponent (Homo sapiens, UniProt P00736); assay: In vitro inhibition of purified human C1r protease.
Sequence (P00736 18-463 limits assumed): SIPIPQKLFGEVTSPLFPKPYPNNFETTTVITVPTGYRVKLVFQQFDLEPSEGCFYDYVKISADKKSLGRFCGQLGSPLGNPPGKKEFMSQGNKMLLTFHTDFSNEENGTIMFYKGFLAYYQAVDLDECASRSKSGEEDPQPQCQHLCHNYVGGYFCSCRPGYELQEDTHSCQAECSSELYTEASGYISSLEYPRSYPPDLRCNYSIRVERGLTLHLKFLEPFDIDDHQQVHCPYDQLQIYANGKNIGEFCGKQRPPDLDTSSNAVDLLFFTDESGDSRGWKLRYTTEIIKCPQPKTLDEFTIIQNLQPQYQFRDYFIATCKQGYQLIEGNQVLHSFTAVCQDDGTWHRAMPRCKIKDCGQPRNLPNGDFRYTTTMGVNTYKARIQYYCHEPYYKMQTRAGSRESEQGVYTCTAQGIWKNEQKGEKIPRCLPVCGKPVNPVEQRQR
Sequence (P00736 464-705 limits assumed): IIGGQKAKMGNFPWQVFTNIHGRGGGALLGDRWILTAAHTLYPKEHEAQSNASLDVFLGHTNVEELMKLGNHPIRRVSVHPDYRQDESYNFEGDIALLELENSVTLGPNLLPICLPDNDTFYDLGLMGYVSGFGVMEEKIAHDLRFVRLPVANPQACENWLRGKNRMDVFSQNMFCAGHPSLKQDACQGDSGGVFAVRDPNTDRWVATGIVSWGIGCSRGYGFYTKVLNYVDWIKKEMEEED
measurement_kind: IC50 (µM)

Example compounds with recorded IC50:
[[record]]
compound = "CN(c1nc2ccccc2c(=O)o1)S(=O)(=O)c1cccc(Cl)c1"
measurement_kind = "IC50"
units_text = "µM"
meas_value = 24

[[record]]
compound = "CN(c1nc2ccccc2c(=O)o1)S(=O)(=O)c1ccc([N+](=O)[O-])cc1"
measurement_kind = "IC50"
units_text = "µM"
meas_value = 31


P. Cc1ccc(S(=O)(=O)N(C)c2nc3ccccc3c(=O)o2)cc1
Q. CCN(c1nc2ccccc2c(=O)o1)S(=O)(=O)c1ccc(Cl)cc1
R. CN(c1nc2ccccc2c(=O)o1)S(=O)(=O)c1ccccc1Br
Asked: Rank the items in ascending order with respect to IC50. Give me the labels in the order the question wants.
Given back: R, P, Q
(R: 2.8 µM, P: 7.8 µM, Q: 30 µM)

###

molecular target: Complement C1r subcomponent (Homo sapiens, UniProt P00736); test: In vitro inhibition of purified human C1r protease.
measurement_kind: IC50 (µM)

[[record]]
compound = "CN(c1nc2ccccc2c(=O)o1)S(=O)(=O)c1c(Cl)cccc1Cl"
meas_value = 7.5

[[record]]
compound = "CN(c1nc2ccccc2c(=O)o1)S(=O)(=O)c1ccc(NC(=N)N)cc1"
meas_value = 1.5

[[record]]
compound = "CN(c1nc2ccccc2c(=O)o1)S(=O)(=O)c1ccc(C#N)cc1"
meas_value = 20

[[record]]
compound = "CN(c1nc2ccccc2c(=O)o1)S(=O)(=O)c1cccc2ccccc12"
meas_value = 6

[[record]]
compound = "CN(c1nc2ccccc2c(=O)o1)S(=O)(=O)c1ccccc1"
meas_value = 4


I. CCN(c1nc2ccccc2c(=O)o1)S(=O)(=O)c1ccccc1
II. CN(c1nc2ccccc2c(=O)o1)S(=O)(=O)c1ccc(N)cc1
III. COc1ccc(S(=O)(=O)N(C)c2nc3ccccc3c(=O)o2)cc1
Asked: hey, can you rank those molecules up there by IC50? biggest number first please Give me the labels in the order the question wants.
Given back: II, I, III
(II: 7 µM, I: 3.2 µM, III: 0.7 µM)

###

experiment: Compound was evaluated for inhibitory activity in hemolysis assay using suspension of sheep erythrocytes sensitized with antibodies to sheep erythrocytes; format: functional, Ovis aries
measurement_kind: pIC50
pIC50 is defined as minus the log10 of a concentration measured in mol/L.

Example compounds with recorded pIC50:
[[record]]
compound = "CN(c1nc2ccccc2c(=O)o1)S(=O)(=O)c1ccc(N)cc1"
measurement_kind = "pIC50"
meas_value = 5.10

[[record]]
compound = "CN(c1nc2ccccc2c(=O)o1)S(=O)(=O)c1ccc(NC(=N)N)cc1"
measurement_kind = "pIC50"
meas_value = 4.74


Okay, next one:
Asked: Please give the measured pIC50 for this compound: N=C(N)Nc1ccc(C(=O)Oc2ccc3cc(C(=N)N)ccc3c2)cc1 [NAFAMOSTAT]
Given back: 4.78

###

biological target: Complement C1r subcomponent (Homo sapiens); test: Evaluated in vitro for inhibitory activity against purified human C1r protease incubated in buffer for 60 minutes
pIC50: −log10 of the molar value.
measurement_kind: pIC50

Example compounds with recorded pIC50:
[[record]]
compound = "CN(c1nc2ccccc2c(=O)o1)S(=O)(=O)c1ccccc1Br"
meas_value = 4.60

[[record]]
compound = "CN(c1nc2ccccc2c(=O)o1)S(=O)(=O)c1ccc(N)cc1"
meas_value = 4.21

[[record]]
compound = "CN(c1nc2ccccc2c(=O)o1)S(=O)(=O)c1ccc(NC(=N)N)cc1"
meas_value = 5.52

[[record]]
compound = "CN(c1nc2ccccc2c(=O)o1)S(=O)(=O)c1ccccc1"
meas_value = 5.22


I. COc1ccc(S(=O)(=O)N(C)c2nc3ccccc3c(=O)o2)cc1
II. CN(c1nc2ccccc2c(=O)o1)S(=O)(=O)c1cccc2ccccc12
Asked: Select one. Lower pIC50: I or II I would appreciate it if you answered with the label of your choice.
Given back: II
(II: 5.00, I: 5.22)

###

biological target: Complement C1r subcomponent (Homo sapiens); assay: In vitro inhibition of purified human C1r protease.
pIC50: −log10 of the molar value.
measurement_kind: pIC50

Example molecules with recorded pIC50:
[[record]]
compound = "COc1ccc(S(=O)(=O)N(C)c2nc3ccccc3c(=O)s2)cc1"
meas_value = "< 4.20"

[[record]]
compound = "CN(c1nc2ccccc2c(=O)o1)S(=O)(=O)c1ccc(C(C)(C)C)cc1"
meas_value = "< 4.22"


Okay, next one:
Asked: Please give the measured pIC50 for this molecule: `CN(c1nc2ccccc2c(=O)s1)S(=O)(=O)c1ccccc1`
Given back: < 4.20

###

biological target: Complement C1r subcomponent (Homo sapiens, UniProt P00736); test: Evaluated in vitro for inhibitory activity against purified human C1r protease incubated in buffer for 60 minutes
pIC50: −log10 of the molar value.
Each item that follows carries a reported pIC50.

Example compounds with recorded pIC50:
[[record]]
compound = "CN(c1nc2ccccc2c(=O)o1)S(=O)(=O)c1ccc(C(C)(C)C)cc1"
tested_target = "Complement C1r subcomponent (Homo sapiens, UniProt P00736)"
measurement_kind = "pIC50"
meas_value = "< 4.22"

[[record]]
compound = "CN(c1nc2ccccc2c(=O)o1)S(=O)(=O)c1ccc(Cl)c(Cl)c1"
tested_target = "Complement C1r subcomponent (Homo sapiens, UniProt P00736)"
measurement_kind = "pIC50"
meas_value = "< 4.20"

[[record]]
compound = "CN(c1nc2ccccc2c(=O)o1)S(=O)(=O)c1c(Cl)cccc1Cl"
tested_target = "Complement C1r subcomponent (Homo sapiens, UniProt P00736)"
measurement_kind = "pIC50"
meas_value = "< 4.21"


Okay, next one:
Asked: Please give the measured pIC50 for this compound: `CN(c1nc2ccccc2c(=O)o1)S(=O)(=O)c1ccc(Cl)cc1`
Given back: < 4.21
